# System: M14 melanoma
# test method notes: NCI-60 one-dose screen, 48 h
# reported conditions: 10 µM unless noted
This is part of a sample that, as a whole, favours compounds with a hit. Of some 83,000 tested, about 20% had one in any assay. The source made the active and inactive calls. How the source made its calls: active means growth percent below 10; inactive means the rest.
Parameter call: string, one of 1 = active, 0 = inactive

Solved cases below.
O=C(CC1(O)C(=O)Nc2ccc(Br)cc21)c1ccc(C(=O)NCC2CCC3(CC2)OOC2(CCCCC2)OO3)cc1 (configuration not stated); 0
C#C[C@]1(OC(=O)CCCCCC)CC[C@H]2[C@@H]3CCC4=CC(=O)CC[C@@H]4[C@H]3CC[C@@]21C; 0
C[S+]1C=Cc2ccccc2C1c1ccc(Cl)cc1 (configuration not stated); 0
CC1=C([Te]c2ccc(O)cc2)C(=O)c2ccccc2C1=O; 1
CC(=O)OCc1cc[c]([Hg][Cl])o1; 0
O=C(CC1(O)C(=O)N(Cc2ccccc2)c2ccccc21)c1ccc(C(=O)NCC2CCC3(CC2)OOC2(CCCCC2)OO3)cc1 (configuration not stated); 0

Now, please, on to the next compound.
query: What is the recorded call for this compound in the test? C[C@@H]1O[C@@H](O[C@H]2C[C@@H](O)[C@]3(CO)C4C(CC[C@]3(O)C2)[C@@]2(O)CC[C@H](C3=CC(=O)OC3)[C@@]2(C)C[C@H]4O)[C@H](O)[C@H](O)[C@H]1O (some centres not stated)
result: 1
